Test system: UMC-11
Assay: relative viability (nuclei count vs DMSO), 5 days (fraction); higher = more cells survive
Conditions: first compound 500 µM
Each record is given yes if its reported relative viability is strictly below 0.1. Records at or above 0.1 are given no.

O=C(O)CCCCC(CCSCc1ccccc1)SCc1ccccc1 (configuration not stated) [CPI-613] + CC(=O)Nc1cccc(-n2c(=O)n(C3CC3)c(=O)c3c(Nc4ccc(I)cc4F)n(C)c(=O)c(C)c32)c1 [Trametinib] (partner 0.02 µM)
yes
O=C(O)CCCCC(CCSCc1ccccc1)SCc1ccccc1 (configuration not stated) [CPI-613] + CCNC(=O)c1noc(-c2cc(C(C)C)c(O)cc2O)c1-c1ccc(CN2CCOCC2)cc1 [Luminespib] (partner 0.01 µM)
no
O=C(O)CCCCC(CCSCc1ccccc1)SCc1ccccc1 (configuration not stated) [CPI-613] + CS(=O)(=O)N1CCN(Cc2cc3nc(-c4cccc5[nH]ncc45)nc(N4CCOCC4)c3s2)CC1 [Pictilisib] (partner 1 µM)
no
O=C(O)CCCCC(CCSCc1ccccc1)SCc1ccccc1 (configuration not stated) [CPI-613] + Cc1nc(NC(=O)N2CCC[C@H]2C(N)=O)sc1-c1ccnc(C(C)(C)C(F)(F)F)c1 [Alpelisib] (partner 2 µM)
yes
O=C(O)CCCCC(CCSCc1ccccc1)SCc1ccccc1 (configuration not stated) [CPI-613] + C[C@]1(O)C[C@@H](c2nc(-c3ccc4ccc(-c5ccccc5)nc4c3)c3c(N)nccn32)C1 [Linsitinib] (partner 1 µM)
yes
O=C(O)CCCCC(CCSCc1ccccc1)SCc1ccccc1 (configuration not stated) [CPI-613] + Cc1nc(Nc2ncc(C(=O)Nc3c(C)cccc3Cl)s2)cc(N2CCN(CCO)CC2)n1 [Dasatinib] (partner 0.075 µM)
yes

[Q] Here's an entry: O=C(O)CCCCC(CCSCc1ccccc1)SCc1ccccc1 (configuration not stated) [CPI-613] + CC(=O)c1c(C)c2cnc(Nc3ccc(N4CCNCC4)cn3)nc2n(C2CCCC2)c1=O [Palbociclib] (partner 0.5 µM) . Is its relative viability below 0.1?
[A] no
